Biological target: prefusion-stabilized NiV F (NiVop08) (Nipah virus, Malaysian strain, stabilised)
readout-kind: binding result

Would you kindly share the measured binding result for 201805_NiV_PL4_D8 (antibody, V domains shown) VH: EVQLQQSGPELVKPGASVKISCQASGYTFTDSNMNWVRQTHGKSLEWIGDVNPNNGGTSYNQRFKGKATLTVDKSSSTAYMEFRSLTSEDSAVYFCSRRALITTVVADYYGLDYWGQGTSVTVSA VL: SIVMTQSPKFLLVSAGDRVTMTCKASQSVNSDVVWFQQKPGQSPKLLIYYASIRYTGVPDRFTGSGYGTDFTFTISPVQAEDLAVYFCQQDYSSPYTFGGGTKLEIK ?
binds

Would you kindly share the measured binding result for 201805_NiV_P1_H5 (antibody, V domains shown) VH: EFQLQQSGPEVVKPGASVRISCKTSGYSFTDYNMNWVRQNNGRSLEWIGVINPNYGTFTYNQKFRGKATLTVDQSSSTAYMQLNSLTSADSAVYFCARAPDYYGINFYFDYWGQGTTLTVSA VL: DVVMTQTPLSLPVSLGDQASISCRSSQSLVHSNGDTYLHWYLQKPGQSPKLLIYKVSNRFSGVPDRFSGSGSGTDFTLKISRVEAEDLGVYFCSQSTHVPPWTFGGGTKLEIK ?
binds
